- System: Inhibin beta A chain (activin A)
- run_description: INHBA (activin A) binders on microarrays, primary screen, biochemical, small-molecule microarray, 635 nm fluorescence scan (AID 1107);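 also: mouse activin A protein probed at 4.33 µg/mL on printed slides; score merges bound-protein fluorescence near 667 nm with spot signal-to-noise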
- condition_context: small-molecule microarray binding, higher = more signal
measurement_type: composite z-score

compound="CCCCCN1CC=CC23O[C@@H]4C=CCOC(=O)[C@@H]4[C@H]2C(=O)N(CCCCCO)[C@@H]3C1=O (stereo partly drawn)" measurement_target="Inhibin beta A chain (activin A)" measurement_type="composite z-score" observed_value=0.676
compound="CCCCN1CC=CC23O[C@@H]4C=CCOC(=O)[C@@H]4[C@H]2C(=O)N(C(CO)C(C)C)[C@@H]3C1=O (stereo partly drawn)" measurement_target="Inhibin beta A chain (activin A)" measurement_type="composite z-score" observed_value=0.843
compound="CN1C(=O)C2C=CC(C(O)c3ccc(-c4ccccc4)s3)N(Nc3ccccc3)C2C1=O (stereo not drawn)" measurement_target="Inhibin beta A chain (activin A)" measurement_type="composite z-score" observed_value=1.23
compound=O=C1O[C@H](c2ccccc2)[C@H](c2ccccc2)N2[C@H]1[C@@H](C(=O)NC[C@H](O)c1ccccc1)[C@]1(C(=O)Nc3ccc(C#CCCO)cc31)[C@H]2c1ccccc1OCCO measurement_target="Inhibin beta A chain (activin A)" measurement_type="composite z-score" observed_value=0.205
compound=C=C(COC)/C(=C/C[C@@H](OC(C)=O)c1ccccc1OCCO)c1cc(C(=O)OC)ccc1OC measurement_target="Inhibin beta A chain (activin A)" measurement_type="composite z-score" observed_value=0.416
compound=COCCCNC(=O)[C@@]1(Sc2ccc(C)cc2)CC(=O)N(C2CCCCC2)[C@@H]1c1ccc(CO)cc1I measurement_target="Inhibin beta A chain (activin A)" measurement_type="composite z-score" observed_value=-0.148
compound=CCOC(=O)C1=CC[C@@H](c2ccc(F)cc2)N(S(=O)(=O)c2ccc(C)cc2)[C@H]1c1ccc([N+](=O)[O-])cc1 measurement_target="Inhibin beta A chain (activin A)" measurement_type="composite z-score" observed_value=0.537
compound=C=CCNC(=O)[C@H]1[C@@H]2C(=O)O[C@@H](c3ccccc3)[C@@H](c3ccccc3)N2[C@@H](c2ccccc2OCCO)[C@]12C(=O)N(C(=O)OCCOC)c1ccccc12 measurement_target="Inhibin beta A chain (activin A)" measurement_type="composite z-score" observed_value=-0.101
compound=CCCCC(=C=CC[C@@H](O)c1ccc(OCCO)cc1)C[C@@H](O)c1ccccn1 measurement_target="Inhibin beta A chain (activin A)" measurement_type="composite z-score" observed_value=0.981
compound=O=C1N(Cc2ccccc2)c2ccccc2[C@H]2OC(c3ccc(OCCCO)cc3)=N[C@@]12Cc1ccccc1 measurement_target="Inhibin beta A chain (activin A)" measurement_type="composite z-score" observed_value=0.925
compound="CC(C)C[C@H]1NC(=O)[C@@]23C(=O)N[C@@H](Cc4ccccc4)C2[C@H](C)[C@@]2(C)O[C@H]2C3/C=C/C/C=C\\CNC(=O)[C@@H]2CCCN2C1=O (stereo partly drawn)" measurement_target="Inhibin beta A chain (activin A)" measurement_type="composite z-score" observed_value=0.918
compound=COC(=O)[C@@]1(CCC(=O)OC(C)(C)C)N=C(c2ccc(OCCCO)cc2)O[C@H]1c1ccccc1CN=[N+]=[N-] measurement_target="Inhibin beta A chain (activin A)" measurement_type="composite z-score" observed_value=0.282
compound="C=CC(CO)NC(=O)OCC1c2ccccc2-c2ccccc21 (stereo not drawn)" measurement_target="Inhibin beta A chain (activin A)" measurement_type="composite z-score" observed_value=0.26
compound="C=CCC(OC(C)=O)[C@@H]1[C@@H](N(Cc2cccc3ccccc23)C(=O)c2ccc(-c3ccccc3)cc2)c2cc(OCCCO)ccc2N1C(=O)c1ccc2ccccc2n1 (stereo partly drawn)" measurement_target="Inhibin beta A chain (activin A)" measurement_type="composite z-score" observed_value=1.31
compound=C=CC[C@@]12N=C(c3ccc(OCCCO)cc3)O[C@@H]1c1ccccc1N(Cc1ccccc1)C2=O measurement_target="Inhibin beta A chain (activin A)" measurement_type="composite z-score" observed_value=1.12
compound=CCCC=C(CCC)[C@@H](NS(=O)(=O)c1ccc(Cl)cc1)c1ccccc1 measurement_target="Inhibin beta A chain (activin A)" measurement_type="composite z-score" observed_value=0.351
compound="CC=CC(O)C1C=CC2C(=O)N(C)C(=O)C2N1NC(=O)OC(C)(C)C (stereo not drawn)" measurement_target="Inhibin beta A chain (activin A)" measurement_type="composite z-score" observed_value=1.04
compound=C=C(COC)/C(=C/C[C@H](OC(=O)c1ccncc1)c1ccc(OCCO)cc1)c1cc(C(=O)OC)ccc1OC measurement_target="Inhibin beta A chain (activin A)" measurement_type="composite z-score" observed_value=1.04

Data provenance: PubChem BioAssay
